Biological target: HuTCR Vb7/9 × Va10.2 (SKW3-3) (human)
Test: flow cytometry on SKW3-3 cells (no Vβ17)
measuredProperty: MFI (MFI)
Report the figure in MFI without appending any unit label.

Enquiry: If you can, please state the reported MFI value of 28C9A5 (antibody, IgG2b, V domains shown) VH: EVQLQESGAELVRPGTSVKMSCKASGYTFTHYWIDWTKQRPGHGLEWIGNIYPGGGYTNYNENFKGKATLTADKSSSTVFMQFSSLTSDDSAIYYCTRKGYYYGSDWYFDVWGTGTTVTVSS VL: QIVLSQSPAIMSASPGEKVTMTCSASSSVSYMHWYQQKSGTSPKRWIYDTSKLASGVPARFSGSGSGTSYSLTISSMEAEDAATYYCQQWSSNPYTFGGGTKLEIK .
Return: 438

Enquiry: If you can, please state the reported MFI value of 21G11D5 (antibody, V domains shown) VH: EVQLQESGPDLKKPGETVKISCKASGYTFTTYGMNWVKQAPGKGLKWMGYLNTYSGVSTYADDFKGRFAFSLETSANTAYLQINNLRNDDTATYFCARWGNYGAMDYWGQGTSVTVSS VL: DIVMTQSPLSLPVSLGDQASISCRSSQSIVRSNGFTYLEWYLQKPGQSPELLIYKVSNRFSGVPDRFSGSGSGTDFTLKISRVEAEDLGVYYCFQSSHVPRTFGGGTKLEIK .
Return: 427

Reference source: patent US20250092134A1
